- Tested on: K562
- experimentalProtocol: cell viability relative to vehicle control; higher = less cytotoxic;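 further: after 48 h exposure read by CellTiter-Glo luminescence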
- measurementConditions: 10 µM; SRSF2 genotype: SRSF2 wt/wt
Below: a set of entries, each annotated with reported cell viability.
Write down the numeric answer in % and omit the unit.

Previously resolved entries follow.
{"molecule": "Cc1cc(Nc2cc(N)ncn2)c(=O)n2c1C(=O)NC21CCCCC1", "units": "%", "readoutValue": 87.7}
{"molecule": "CS(=O)(=O)n1cc2c(n1)CN([C@H]1CO[C@H](c3cc(F)ccc3F)[C@@H](N)C1)C2 [Omarigliptin (MK-3102)]", "units": "%", "readoutValue": 96.2}
{"molecule": "COc1ccc(/C=C/c2cc(OC)cc(=O)o2)cc1 [Yangonin]", "units": "%", "readoutValue": 104}
{"molecule": "Cn1nccc1Nc1nccc(-c2cc3c(s2)C(C)(C)N(CCN2CCOCC2)C3=O)n1", "units": "%", "readoutValue": 76.5}
{"molecule": "COC(=O)CC1CC(c2ccc(O)cc2)=NO1 (centres undefined)", "units": "%", "readoutValue": 104}

Specify reported cell viability for the molecule shown: O=C(c1ccccc1)c1ccc2n1CCC2C(=O)O (centres undefined) [Ketorolac]
99.6

Specify reported cell viability for the molecule shown: O=C(C=CC=Cc1ccccc1)CCc1ccccc1 [Alnustone]
91.8

Specify reported cell viability for the molecule shown: COc1cccc(-c2c(C)n(Cc3c(F)cccc3C(F)(F)F)c(=O)n(C[C@H](NCCCC(=O)O)c3ccccc3)c2=O)c1F [Elagolix Sodium]
96.3

Specify reported cell viability for the molecule shown: "Cn1cc(CNCC2CCN(c3ncc(C(=O)NO)cn3)CC2)c2ccccc21"
3

Specify reported cell viability for the molecule shown: CC(=O)[C@H]1CC[C@H]2[C@@H]3CCC4=CC(=O)CC[C@]4(C)[C@H]3CC[C@]12C [Progesterone (Prometrium)]
81.7

Specify reported cell viability for the molecule shown: CC(=CCNc1ncnc2c1ncn2C1OC(CO)C(O)C1O)CO (stereo not drawn) [trans-Zeatin-riboside]
108

Specify reported cell viability for the molecule shown: "COc1ccc([C@]2(C#N)CC[C@@H](C(=O)O)CC2)cc1OC1CCCC1"
99.1

Specify reported cell viability for the molecule shown: "Cc1cccc(Nc2nc(N[C@@H]3CCCC[C@@H]3N)ncc2C(N)=O)c1"
63.7

Specify reported cell viability for the molecule shown: CC1=CCC2C(C1)C2(C)C (centres undefined) [3-Carene]
106

----------
Below: a set of entries, each annotated with reported cell viability.
- Tested on: MARIMO
- experimentalProtocol: cell viability relative to vehicle control; higher = less cytotoxic
- measurementConditions: 10 µM; SRSF2 genotype: SRSF2 P95H/wt
Where a name gives a salt, the structure may show the parent alone.
Write down the numeric answer in % and omit the unit.

{"compound": "c1ccc(-c2ccc(C(c3ccccc3)n3ccnc3)cc2)cc1 (centres undefined) [Bifonazole]", "experimentalSystem": "MARIMO", "cell viability [%]": 81.4}

Give measured cell viability for O=C(O)c1ccccc1C(=O)Nc1ccc(-c2ccccc2)cc1 [Kartogenin] (MARIMO).
105

Give measured cell viability for CC[C@H]1OC(=O)[C@H](C)[C@@H](O[C@H]2C[C@@](C)(OC)[C@@H](O)[C@H](C)O2)[C@H](C)[C@@H](O[C@@H]2O[C@H](C)C[C@H](N(C)C)[C@H]2O)[C@](C)(O)C[C@@H](C)CN[C@H](C)[C@@H](O)[C@]1(C)O [Azathramycin] (MARIMO).
107

Give measured cell viability for CC[C@@]1(O)C(=O)OCc2c1cc1n(c2=O)Cc2cc3cc(O)ccc3nc2-1 [10-Hydroxycamptothecin] (MARIMO).
4.98

Give measured cell viability for COc1ccc(C2CC(=O)c3c(O)cc(OC4OC(COC5OC(C)C(O)C(O)C5O)C(O)C(O)C4O)cc3O2)cc1 (centres undefined) [Didymin] (MARIMO).
108

Give measured cell viability for CNS(=O)(=O)CCc1ccc2[nH]cc(C3CCN(C)CC3)c2c1 [Naratriptan HCl] (MARIMO).
97.3

Give measured cell viability for COc1ccccc1OCC(O)CN1CCN(CC(=O)Nc2c(C)cccc2C)CC1 (centres undefined) [Ranolazine dihydrochloride] (MARIMO).
96.7

Give measured cell viability for "CN(C(=O)CNC(=O)/C=C/c1cccc(Cl)c1)C1CCS(=O)(=O)CC1" (MARIMO).
103

Give measured cell viability for "O=C1N=C(N2CCOCC2)CN1c1ccc(Cl)cc1" (MARIMO).
99.3

Give measured cell viability for OCc1ccccc1O[C@@H]1O[C@H](CO)[C@@H](O)[C@H](O)[C@H]1O [Salicin (Salicoside, Salicine)] (MARIMO).
103

Give measured cell viability for C=C1[C@@H]2CC[C@@H](C2)C1(C)C [Camphene] (MARIMO).
102

FYI, the data here is from the supplement of paper PMC10981050.
